The reported measurements were obtained from the OligoGym collection.

# STUDY_SYSTEM: RGS6; also: reference of the scale not given here
# PROTOCOL_SUMMARY: pooled miR-30 sensor sort-seq; sequence = guide strand
# APPLIED_CONDITIONS: shRNA
Quick rule for you: sensor-assay potency score (higher = more potent) at -0.4 or higher means Satisfied, lower means Not satisfied.

Does sensor-assay potency score (higher = more potent) meet or surpass -0.4 for "TAATCTCAAGTGATAGTCGTGA" ?
Satisfied

Does sensor-assay potency score (higher = more potent) meet or surpass -0.4 for "TTGTCATCTTGCATCTTTGTAA" ?
Not satisfied

Does sensor-assay potency score (higher = more potent) meet or surpass -0.4 for "TTTGACACACACACACAGGGAA" ?
Satisfied

Does sensor-assay potency score (higher = more potent) meet or surpass -0.4 for "TCAAACGTCGACATTTTCGGAT" ?
Not satisfied

Does sensor-assay potency score (higher = more potent) meet or surpass -0.4 for "TTCTGCTTCATAATCTGCCAGT" ?
Not satisfied

Does sensor-assay potency score (higher = more potent) meet or surpass -0.4 for "TCTGTCTTGTCTTTTTTCCGGT" ?
Satisfied
